Target: full-length human E6AP (C-terminal TEV-6xHis-Avi) (human, UniProt Q05086 1-875, biotin on the Avi tag (BirA biotin-protein ligase) in the SPR experiments)
Sequence (Q05086 whole entry): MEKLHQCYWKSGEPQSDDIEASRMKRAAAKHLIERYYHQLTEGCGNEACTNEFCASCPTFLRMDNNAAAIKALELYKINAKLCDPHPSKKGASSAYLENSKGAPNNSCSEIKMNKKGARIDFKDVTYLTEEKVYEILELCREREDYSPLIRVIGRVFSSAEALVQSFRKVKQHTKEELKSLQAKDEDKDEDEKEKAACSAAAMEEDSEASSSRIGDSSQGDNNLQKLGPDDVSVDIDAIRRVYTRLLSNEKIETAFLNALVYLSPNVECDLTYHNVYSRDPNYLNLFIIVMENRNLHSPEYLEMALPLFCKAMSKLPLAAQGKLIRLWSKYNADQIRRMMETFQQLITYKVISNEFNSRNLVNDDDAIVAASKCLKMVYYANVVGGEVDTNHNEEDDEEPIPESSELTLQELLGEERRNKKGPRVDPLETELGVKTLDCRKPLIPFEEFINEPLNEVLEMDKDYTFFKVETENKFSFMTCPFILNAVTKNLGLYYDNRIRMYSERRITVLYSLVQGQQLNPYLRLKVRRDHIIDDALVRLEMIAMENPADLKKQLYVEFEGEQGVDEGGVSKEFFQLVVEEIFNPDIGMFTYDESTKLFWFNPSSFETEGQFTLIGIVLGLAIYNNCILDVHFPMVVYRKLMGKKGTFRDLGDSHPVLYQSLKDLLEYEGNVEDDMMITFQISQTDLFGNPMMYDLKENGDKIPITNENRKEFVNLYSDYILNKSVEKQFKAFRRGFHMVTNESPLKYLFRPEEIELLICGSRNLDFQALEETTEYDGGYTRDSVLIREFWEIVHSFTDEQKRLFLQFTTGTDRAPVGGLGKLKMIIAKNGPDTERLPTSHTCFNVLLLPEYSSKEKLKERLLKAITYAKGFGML
Test: cell-based or functional assay
Measured unmodified p53 remaining at 30 min, in vitro ubiquitination of full-length p53 accompanies every entry in the list below.
Measurement kind: unmodified p53 remaining at 30 min, in vitro ubiquitination of full-length p53 (%)

1) MBP-16E6(4C4S) Y77A (natural protein, Mutant of m2; source: E. coli BL21(DE3), purified (MBPTrap, SEC); not shown: MBP, N-terminal, kept) MHQKRTAMFQDPQERPRKLPQLCTELQTTIHDIILECVYCKQQLLRREVYDFAFRDLCIVYRDGNPYAVCDKCLKFASKISEYRHYSYSLYGTTLEQQYNKPLSDLLIRCINCQKPLSPEEKQRHLDKKQRFHNIRGRWTGRCMSCSRSSRTRRETQL
22.4
2) MBP-16E6(4C4S) Y86A (natural protein, Mutant of m2; source: E. coli BL21(DE3), purified (MBPTrap, SEC); not shown: MBP, N-terminal, kept) MHQKRTAMFQDPQERPRKLPQLCTELQTTIHDIILECVYCKQQLLRREVYDFAFRDLCIVYRDGNPYAVCDKCLKFYSKISEYRHASYSLYGTTLEQQYNKPLSDLLIRCINCQKPLSPEEKQRHLDKKQRFHNIRGRWTGRCMSCSRSSRTRRETQL
44.2
3) MBP-16E6(4C4S) Y88A (natural protein, Mutant of m2; source: E. coli BL21(DE3), purified (MBPTrap, SEC); not shown: MBP, N-terminal, kept) MHQKRTAMFQDPQERPRKLPQLCTELQTTIHDIILECVYCKQQLLRREVYDFAFRDLCIVYRDGNPYAVCDKCLKFYSKISEYRHYSASLYGTTLEQQYNKPLSDLLIRCINCQKPLSPEEKQRHLDKKQRFHNIRGRWTGRCMSCSRSSRTRRETQL
19.2
4) MBP-16E6(4C4S) S89A (natural protein, Mutant of m2; source: E. coli BL21(DE3), purified (MBPTrap, SEC); not shown: MBP, N-terminal, kept) MHQKRTAMFQDPQERPRKLPQLCTELQTTIHDIILECVYCKQQLLRREVYDFAFRDLCIVYRDGNPYAVCDKCLKFYSKISEYRHYSYALYGTTLEQQYNKPLSDLLIRCINCQKPLSPEEKQRHLDKKQRFHNIRGRWTGRCMSCSRSSRTRRETQL
57.3
5) MBP-16E6(4C4S) F76A (natural protein, Mutant of m2; source: E. coli BL21(DE3), purified (MBPTrap, SEC); not shown: MBP, N-terminal, kept) MHQKRTAMFQDPQERPRKLPQLCTELQTTIHDIILECVYCKQQLLRREVYDFAFRDLCIVYRDGNPYAVCDKCLKAYSKISEYRHYSYSLYGTTLEQQYNKPLSDLLIRCINCQKPLSPEEKQRHLDKKQRFHNIRGRWTGRCMSCSRSSRTRRETQL
59.5
